Target: P. falciparum apicoplast DNA polymerase (Pf-apPOL) (Plasmodium falciparum, UniProt Q8ILY1)
Sequence (Q8ILY1 entry or part of it): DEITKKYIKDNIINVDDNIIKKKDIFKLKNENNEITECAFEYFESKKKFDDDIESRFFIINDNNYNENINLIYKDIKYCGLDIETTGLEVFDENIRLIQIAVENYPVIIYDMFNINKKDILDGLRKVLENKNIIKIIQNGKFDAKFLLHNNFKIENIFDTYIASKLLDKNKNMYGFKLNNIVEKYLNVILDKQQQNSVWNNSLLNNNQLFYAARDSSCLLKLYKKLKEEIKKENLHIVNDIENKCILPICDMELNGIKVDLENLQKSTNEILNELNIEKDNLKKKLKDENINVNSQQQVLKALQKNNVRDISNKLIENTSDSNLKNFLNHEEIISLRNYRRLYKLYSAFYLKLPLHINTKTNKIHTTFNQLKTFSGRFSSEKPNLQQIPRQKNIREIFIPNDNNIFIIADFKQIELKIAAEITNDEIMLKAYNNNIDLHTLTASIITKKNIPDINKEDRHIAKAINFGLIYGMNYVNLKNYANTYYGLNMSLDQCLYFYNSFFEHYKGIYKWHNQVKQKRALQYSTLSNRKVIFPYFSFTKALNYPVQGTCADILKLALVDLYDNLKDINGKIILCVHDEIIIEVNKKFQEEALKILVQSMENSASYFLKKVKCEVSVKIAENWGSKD
Test: Fluorescence-based high-throughput DNA polymerase assay (molecular beacon), primary screen and dose-response
Assay type: biochemical
Settings: DRC-1; read at 10'; concentration 5
From the text: The HT assay employs a molecular beacon, a stem-loop DNA template with a Cy3 dye and the Black Hole Quencher on the 3′ and 5′ ends of the DNA, respectively. Pf-apPOL concentration is based on a calculated absorptivity of ε280 = 56750 M^−1 cm^−1. […] To identify apPOL inhibitors we utilised our previously developed high-throughput DNA polymerase assay. […] The assay accurately recapitulates the kinetic behaviour of apPOL, as measured through more conventional low-throughput gel-based assays. […]
So I've got a bunch of compounds here, and I need their % inhibition Apo pol 10' 5 values.
Numeric only. Scale: %

Query: Reported % inhibition Apo pol 10' 5 for Nc1cc(Oc2ccc(O)c(N)c2)ccc1O : what is it?
Result: 31.2811

Query: I would be grateful if you could share the reported % inhibition Apo pol 10' 5 for O=C(c1ccccc1)N1CCc2c(nc3cc(-c4ccccc4)[nH]n3c2=O)C1 .
Result: 15.849

Query: Look up % inhibition Apo pol 10' 5: C#CC(C=CC)OC(=O)c1ccccc1C(=O)O (stereo not shown)
Result: 15.4135

Query: // lookup % inhibition Apo pol 10' 5 for CC(C)CC(C(=O)O)N1C(=O)C2C3C=CC(C2C1=O)C1C(=O)N(C(CC(C)C)C(=O)O)C(=O)C31 (stereo not shown)
Result: 0.7522

* * *

Biological target: P. falciparum apicoplast DNA polymerase (Pf-apPOL) (Plasmodium falciparum, UniProt Q8ILY1)
Experiment: Fluorescence-based high-throughput DNA polymerase assay (molecular beacon), primary screen and dose-response
Type: biochemical
Conditions: DRC-2; 90'; concentration 10
Classification field: criterion met = % inhibition ApPOL 90' at or over 50%; criterion not met = % inhibition ApPOL 90' under 50%.

Query: Check this molecule for % inhibition ApPOL 90' at or above 50%: CCCCOC(=O)CCCCCN1C(=O)C(=Cc2ccc(OC)cc2)SC1=S
Result: criterion not met

Query: Would you say O=C1N=C(Nc2cccc(Cl)c2Cl)S/C1=C\c1ccco1 [Molecule 3, O=C1N=C(S/C/1=C\c1ccco1)Nc1cccc(c1Cl)Cl] shows % inhibition ApPOL 90' at minimum 50%?
Result: criterion met

Query: Can O=C(CSc1nnc(-c2ccncc2)[nH]1)c1ccc(O)c(O)c1 be said to have % inhibition ApPOL 90' at or above 50%?
Result: criterion met

Query: In plain terms: is recorded % inhibition ApPOL 90' at least 50% for COc1ccc(S(=O)(=O)/N=C2\NC(=O)/C(=C3\C(=O)Nc4ccc([N+](=O)[O-])cc43)S2)cc1 ?
Result: criterion not met

Query: Hi, just wondering whether Oc1cccc2ccc(/C=C/c3ccc4c(c3)OCO4)nc12 shows % inhibition ApPOL 90' of 50% or higher.
Result: criterion not met

Query: Is it the case that Cc1nc(/N=N/c2ccc(C(=O)[O-])cc2)c(COP(=O)([O-])[O-])c(C=O)c1O.[Na+].[Na+].[Na+] has % inhibition ApPOL 90' reaching or exceeding 50%?
Result: criterion not met

Query: Kindly determine if % inhibition ApPOL 90' recorded for O=C1CCCC2=C1C(c1ccccn1)C1=C(CCCC1=O)O2 is above or exactly 50%.
Result: criterion not met

* * *

Target: P. falciparum apicoplast DNA polymerase (Pf-apPOL) (Plasmodium falciparum, UniProt Q8ILY1)
Assay: Fluorescence-based high-throughput DNA polymerase assay (molecular beacon), primary screen and dose-response
Format: biochemical
Conditions: DRC-2; 5'; concentration 5
Recorded Metric: % inhibition Apo pol 5'

Query: May I ask what % inhibition Apo pol 5' has been recorded for O=C(CSc1nc2ccccc2s1)Nc1ncc([N+](=O)[O-])s1 ?
Result: -22%

Query: Requested field: % inhibition Apo pol 5'. Item: O=C(O)c1cccc(N2N=C(C(F)(F)F)/C(=C/c3ccc(-c4ccccc4[N+](=O)[O-])o3)C2=O)c1
Result: 27%

Query: Look at this compound and give its reported % inhibition Apo pol 5'. O=C1NCCCn2cc(S(=O)(=O)Nc3ccccc3)cc21
Result: 8%

Query: What value of % inhibition Apo pol 5' has been reported for the following compound? COc1ccc(CNC(=O)Cn2nc3c(c2NC(=O)Cc2cccs2)CSC3)cc1
Result: -3.35%

Query: Which measured % inhibition Apo pol 5' value corresponds to Cc1ccccc1C(=O)N1CCc2c(nc3cc(-c4ccccc4)[nH]n3c2=O)C1 ?
Result: 8%

Query: Which % inhibition Apo pol 5' is reported for this compound? COc1ccc(NC(=O)Cn2ccc3c(=O)[nH]ccc32)cc1 [Molecule 13, COc1ccc(cc1)NC(=O)Cn1ccc2c1cc[nH]c2=O]
Result: 18%

Query: Tell me the measured % inhibition Apo pol 5' of CCOC(=O)C1=C2c3cc(OC)c(OC)cc3CC(C)(C)N2C(=O)C1=O , please.
Result: -4.49%

Query: Give the measured % inhibition Apo pol 5' of Nc1c(S(=O)(=O)O)cc(Nc2ccccc2)c2c1C(=O)c1ccccc1C2=O .
Result: 15%

* * *

Molecular target: P. falciparum apicoplast DNA polymerase (Pf-apPOL) (Plasmodium falciparum)
Assay: Fluorescence-based high-throughput DNA polymerase assay (molecular beacon), primary screen and dose-response
Assay type: biochemical
Conditions: primary screen value; head prints only 'DNA Pol'; 90 min, 10 µM
I'd be grateful if you could share measured DNA Pol for these entries.
Field format: numeric only.

Query: Item COc1cc(/C=C2\C(=O)N(c3ccc(C(=O)O)cc3)N=C2C(F)(F)F)ccc1OCC(C)C [KU0069072] has what recorded DNA Pol?
Result: 76

Query: Look up DNA Pol for this compound: O=C(O)c1nc(-c2ccccc2)nc2c1OCO2 [Molecule 45, OC(=O)c1nc(nc2c1OCO2)c1ccccc1]
Result: 34

Query: Name the recorded DNA Pol for Cc1cc(C)nc(Nc2nc(CC(=O)Nc3nc(-c4ccco4)cs3)cs2)n1 [Molecule 92] .
Result: 70

Query: Entry CCOc1ccc2cc(C3=NN(C(=O)CCC(=O)O)C(c4ccc(C)cc4)C3)c(=O)[nH]c2c1 (centres unmarked) [KU0056200] has what DNA Pol?
Result: 36

Query: Which DNA Pol reading was recorded for the compound CCCCCc1c2c(cc(O)c1C(=O)O)OC(=O)c1c(cc(OC)cc1C(=O)CCCC)O2 [Molecule 24] ?
Result: 33

Query: Can you look up the measured DNA Pol of O=[N+]([O-])c1ccc(SCc2ccco2)c2cccnc12 [KU0034480] for me?
Result: 42

Query: Tell me the measured DNA Pol of O=C(O)c1cc([N+](=O)[O-])c(N2CCN(c3cccc(C(F)(F)F)c3)CC2)c([N+](=O)[O-])c1 [KU0076747] , please.
Result: 52

Query: Record request: DNA Pol value, item O=C(Nc1c2c(nn1-c1ccccc1)CSC2)c1ccco1 [KU0055213]
Result: 50

Query: Look up DNA Pol for this compound: O=C(Cc1cccs1)N1CCN(c2nc(CN3CCOCC3)cs2)CC1 [Molecule 35]
Result: 37

Query: Need DNA Pol, item Nc1ncnc(NC2CCCCC2)c1[N+](=O)[O-] [KU0193018]
Result: 25

Query: Bench note: what DNA Pol did Cc1ccnc(NS(=O)(=O)c2ccc(-n3cccc3)cc2)n1 [KU0034899] show?
Result: 40

Query: Dear colleague, I am looking for the recorded DNA Pol of the following compound: O=C(Cn1ccc2c(=O)[nH]ccc21)Nc1ccccc1Cl [Molecule 19, O=C(Cn1ccc2c1cc[nH]c2=O)Nc1ccccc1Cl]
Result: 82

Query: Recorded DNA Pol of CCCN1COc2ccc3c(=O)c(-c4ccccc4)coc3c2C1 [KU0199556] , please.
Result: 28

Query: Entry under review: COc1ccc(NC(=O)Cn2nc3c(cc2=O)CCC3)cc1Cl [Molecule 4, COc1ccc(cc1Cl)NC(=O)Cn1nc2CCCc2cc1=O] . Reported DNA Pol?
Result: 45

Query: Value lookup for DNA Pol; key = COc1ccc(-c2occ(C(=O)O)c2C(=O)O)cc1 [KU0021536]
Result: 29

Query: Which DNA Pol is reported for this compound? O=C1c2ccccc2C(=O)c2c1oc1c3c(ccc21)OCN(C1CCCC1)C3 [KU0064306]
Result: 61

Query: Given COc1ccc(C=C2Oc3c(ccc4c3CN(Cc3ccco3)CO4)C2=O)c(OC)c1 [KU0199404] , state its recorded DNA Pol.
Result: 29

Query: # input compound: Cc1ccc(C2=N/C(=C\c3ccc(I)o3)C(=O)O2)cc1[N+](=O)[O-] [KU0073890] ; wanted: its DNA Pol
Result: 42

Query: # input compound: Oc1cccnc1/N=C/c1cc(I)cc(I)c1O [KU0073720] ; wanted: its DNA Pol
Result: 46

Query: For the compound CCc1ccccc1NC(=O)c1ccc(-c2ncccc2NC(C)=O)cc1 [KU0203112] , what DNA Pol is on record?
Result: 26
